measurementNotes: Displacement of [3H]nitrendipine binding to L-type calcium channel of Guinea pig cerebral cortex membranes
Type: tissue-based, Cavia porcellus
Reported values of IC50 for individual entries
Output spec: scalar in nM, unitless text.

Solved entries:
compound	measuredMetric	quantitativeReadout
COc1ccc(CCN(C)CCCOc2ccc(S(=O)(=O)c3c(C4CC4)cn4ccccc34)cc2)cc1OC	IC50	0.74
COc1cccc(CCN(C)CCCOc2ccc(S(=O)(=O)c3c(C(C)C)cn4ccccc34)cc2)c1	IC50	2.6
COc1ccc(CCN(C)CCCC(C#N)(c2ccc(OC)c(OC)c2)C(C)C)cc1OC (configuration not stated)	IC50	38

`CCc1cn2ccccc2c1S(=O)(=O)c1ccc(OCCCNC(C)(C)C)cc1` has a reported IC50 of 130

`CCCCc1cn2ccccc2c1S(=O)(=O)c1ccc(OCCCN(CCC)CCC)cc1` has a reported IC50 of 129

`COc1ccc(CCNCCCOc2ccc(S(=O)(=O)c3c(C(C)C)cn4ccccc34)cc2)cc1OC` has a reported IC50 of 1.8

`CCCN(CCC)CCCOc1ccc(S(=O)(=O)c2c(C)cn3ccccc23)cc1` has a reported IC50 of 648

`COc1ccc(CN(C)CCCOc2ccc(S(=O)(=O)c3c(C(C)C)cn4ccccc34)cc2)cc1OC` has a reported IC50 of 0.62

###

Reported values of pIC50 for individual entries
measurementNotes: Displacement of [3H]nitrendipine binding to L-type calcium channel of Guinea pig cerebral cortex membranes
Type: tissue-based, Cavia porcellus
Quick note: pIC50 values are minus log10 of concentrations in mol/L.

Solved entries:
smiles	pIC50
CC(C)c1cn2ccccc2c1S(=O)(=O)c1ccc(OCCCNCCc2ccccc2)cc1	8.40
CCCCN(CCCC)CCCOc1ccc(S(=O)(=O)c2c(C(C)(C)C)cn3ccccc23)cc1	8.02

`CCc1cn2ccccc2c1S(=O)(=O)c1ccc(OCCCNCCc2ccc(OC)c(OC)c2)cc1` has a reported pIC50 of 8.34

###

Reported values of pIC50 for individual entries
measurementNotes: Displacement of [3H]nitrendipine binding to L-type calcium channel of Guinea pig cerebral cortex membranes
Assay type: tissue-based, Cavia porcellus
Quick note: pIC50 values are minus log10 of concentrations in mol/L.

Solved entries:
smiles	pIC50
COc1ccc(CCN(C)CCCCOc2ccc(S(=O)(=O)c3c(C(C)C)cn4ccccc34)cc2)cc1OC	8.64
CCCCN(CCCC)CCCOc1ccc(S(=O)(=O)c2c(CC)cn3ccccc23)cc1	7.85
COc1ccc(CCN(C)CCCOc2ccc(S(=O)(=O)c3c(C(C)C)cn4ccccc34)cc2)cc1	8.06
CCCCN(CCCC)CCCCOc1ccc(S(=O)(=O)c2c(CC)cn3ccccc23)cc1	8.34
CCN(CC)CCCOc1ccc(S(=O)(=O)c2c(C(C)C)cn3ccccc23)cc1	7.29

`CC(C)(C)NCCCOc1ccc(S(=O)(=O)c2c(C(C)(C)C)cn3ccccc23)cc1` has a reported pIC50 of 7.05

`CC(C)(C)NCCCOc1ccc(S(=O)(=O)c2c(C3CC3)cn3ccccc23)cc1` has a reported pIC50 of 7.37

`COc1cc(CCN(C)CCCOc2ccc(S(=O)(=O)c3c(C(C)C)cn4ccccc34)cc2)cc(OC)c1` has a reported pIC50 of 9.72

`COc1ccc(CNCCCOc2ccc(S(=O)(=O)c3c(C(C)C)cn4ccccc34)cc2)cc1OC` has a reported pIC50 of 8.92
